Listed compounds paired with reported TGI
- Tested on: KM12 colon
- ASSAY: NCI tumour cell line growth inhibition, 48 h

Sample answers from the record:
>>> measurement("Cc1ccc(NC(=O)c2nc(S(C)(=O)=O)oc2-c2ccc(F)cc2)cc1Nc1ccc2ncn(C)c(=O)c2c1")
"11.1 µM"
>>> measurement("N#Cc1c(-c2ccccc2)cc(-c2cccs2)c(C#N)c1N")
"> 100 µM"
>>> measurement("COC(=O)[C@]1(C)CCC[C@]2(C)[C@@H](CCC(=O)C(C)C)[C@]3(C=O)O[C@@H]3C[C@H]21")
"> 100 µM"
>>> measurement("NC(=N\\N=C/c1ccc(Cl)cc1Cl)/C(N)=N\\N=C/c1ccc(Cl)cc1Cl")
"> 100 µM"

// moving on: another record for TGI
query: I'd like to know its TGI. The compound in question is CSC1=C(C#N)C(=O)N(c2ccc(C)cc2)C(=O)C1C#N (stereo not given)
result: > 100 µM
